test system: Thyroperoxidase (TPO), gene 54314; assay: CCTE_Simmons_AUR_rTPO: CCTE's Amplex UltraRed Assay for Thyroperoxidase (TPO) Inhibition, Simmons Lab (AID 2283662);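 note: potency for loss of signal meaning inhibition of peroxidase activity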
The source made the active and inactive calls. Rule for the calls: active = hit-call score of the fitted dose curve at least 0.9, where 1 is the maximum; inconclusive = response in the unintended direction; inactive = score below 0.9.
Listed compounds paired with reported AC50

See these solved cases before continuing.
INSERT INTO results (compound, assaysystem, testvalue) VALUES
  ('S=C([S-])NCCNC(=S)[S-].[Mn+2]', 'Thyroperoxidase (TPO), gene 54314', '12.6 µM (active)'),
  ('CCOC(=O)C(C)Oc1ccc(Oc2nc3ccc(Cl)cc3o2)cc1 (centres undefined)', 'Thyroperoxidase (TPO), gene 54314', '43.6 µM (active)'),
  ('CN(C)C(=O)Nc1ccc(Cl)c(Cl)c1', 'Thyroperoxidase (TPO), gene 54314', '36.6 µM (active)'),
  ('CCCCOCCOCCOCc1cc2c(cc1CCC)OCO2', 'Thyroperoxidase (TPO), gene 54314', '34.2 µM (active)');

Entry under review: O=C(Nc1ccc([N+](=O)[O-])cc1Cl)c1cc(Cl)ccc1O . Reported AC50?
3.56 µM (active)

Entry under review: Oc1ccc(C(c2ccc(O)cc2)C(Cl)(Cl)Cl)cc1 . Reported AC50?
4.87 µM (active)

Entry under review: N[C@@H](Cc1cc(I)c(Oc2ccc(O)c(I)c2)c(I)c1)C(=O)O . Reported AC50?
2.92 µM (active)

Entry under review: N#CSCSc1nc2ccccc2s1 . Reported AC50?
2.57 µM (active)

* * *

Assay: ATG_BRE_CIS: Attagene CIS-FACTORIAL HepG2 Assay for human Bone Morphogenetic Protein (BMP) Response Element (BRE) (AID 2282933)
Settings: HepG2 BMP response element reporter, Attagene transcription factor profiling; actives raise or lower the signal
Protocol: ATG_CIS is a cell-based, multiplexed-readout assay that uses HepG2, a human liver cell line, with measurements taken at 24 hours after chemical dosing in a 24-well plate.ATG_BRE_CIS is one of 52 assay component(s) measured or calculated from the ATG_CIS assay. […] This assay endpoint, ATG_BRE_CIS, was analyzed with bidirectional fitting relative to DMSO as the negative control and baseline of activity. […]
Activity calls are given as the source filed them. The calls were made as follows: active = hit-call score of the fitted dose curve at least 0.9, where 1 is the maximum; inactive = score below 0.9.
// classify into active, inactive

INSERT INTO measurements (compound, class) VALUES
  ('CCNc1nc(N)nc(Cl)n1', 'inactive');

Could you check what this test reported for CCCN(CCC)C(=O)SCC ?
inactive

Could you check what this test reported for COC(=O)c1ccc(I)cc1S(=O)(=O)NC(=O)Nc1nc(C)nc(OC)n1 ?
inactive

Could you check what this test reported for CCOC(=O)[C@H](C)Oc1ccc(Oc2nc3ccc(Cl)cc3o2)cc1 ?
inactive

Could you check what this test reported for CSC(=O)c1cccc2nnsc12 ?
inactive

Could you check what this test reported for CCC(O)=C1C(=O)CC(C(=O)O)CC1=O (stereo not given) ?
inactive

Could you check what this test reported for CCOC(=O)NCCOc1ccc(Oc2ccccc2)cc1 ?
active

Could you check what this test reported for CCCOC(=O)NCCCN(C)C ?
inactive

Could you check what this test reported for OB(O)O ?
inactive

Could you check what this test reported for CCCCOCCOCCOCc1cc2c(cc1CCC)OCO2 ?
inactive

Could you check what this test reported for N[C@@H](Cc1cc(I)c(Oc2ccc(O)c(I)c2)c(I)c1)C(=O)O ?
inactive

Could you check what this test reported for CCOC(=O)COc1cc(-n2ncc(C(F)(F)F)c(C)c2=O)c(F)cc1Cl ?
inactive

Could you check what this test reported for CCCCCCC(C)OC(=O)COc1nc(F)c(Cl)c(N)c1Cl (stereo not given) ?
inactive

Could you check what this test reported for O=C(Nc1ccc([N+](=O)[O-])cc1Cl)c1cc(Cl)ccc1O ?
active

Could you check what this test reported for CCC(C)OC(=O)N1CCCCC1CCO (stereo not given) ?
inactive

Could you check what this test reported for CCCCOC(=O)C(C)Oc1ccc(Oc2ccc(C(F)(F)F)cn2)cc1 (stereo not given) ?
inactive

Cited source: PubChem BioAssay (EPA / NIEHS)
